Recorded values, source ChEMBL document CHEMBL3988442.

System: Trypanosoma cruzi
Assay Text: Trypanosoma cruzi phosphomannomutase and mannose-1-phosphate guanylyltransferase assay
Type: functional
Set-up: scale not given: direction of the effect not stated beside the values
Condition Description: 10 µM
Readout Kind: Percent Effect (%)
Numbers only; they are read as %.

A selection of reference data follows.
{"Compound": "COCCCN1CCc2cncnc2C1", "Unit Of Measure": "%", "Number": 9.35}
{"Compound": "Cc1cnc(CN(Cc2ccccc2)CC(O)c2cccs2)cn1 (stereo not drawn)", "Unit Of Measure": "%", "Number": 6.35}
{"Compound": "CCC(C)NC(=O)Cc1c(C)nc2c(c1C)c(=O)[nH]n2C (stereo not drawn)", "Unit Of Measure": "%", "Number": 3.44}
{"Compound": "Cc1cc(C)nc(NC(=O)C(C)Oc2ccc3c(c2)OCO3)n1 (stereo not drawn)", "Unit Of Measure": "%", "Number": 5.21}
{"Compound": "CC(C)OCc1ncn2c1CN(Cc1cccs1)CCC2", "Unit Of Measure": "%", "Number": -2.25}

Consider now this further compound.
Percent Effect in this record for CC(=O)N1CCC(Cc2cnc(-c3c(C)n[nH]c3C)cn2)C1 (stereo not drawn) : 1.97

* * *

Tested On: Tyrosyl-tRNA synthetase, putative (Trypanosoma cruzi (strain CL Brener))
Sequence (whole entry): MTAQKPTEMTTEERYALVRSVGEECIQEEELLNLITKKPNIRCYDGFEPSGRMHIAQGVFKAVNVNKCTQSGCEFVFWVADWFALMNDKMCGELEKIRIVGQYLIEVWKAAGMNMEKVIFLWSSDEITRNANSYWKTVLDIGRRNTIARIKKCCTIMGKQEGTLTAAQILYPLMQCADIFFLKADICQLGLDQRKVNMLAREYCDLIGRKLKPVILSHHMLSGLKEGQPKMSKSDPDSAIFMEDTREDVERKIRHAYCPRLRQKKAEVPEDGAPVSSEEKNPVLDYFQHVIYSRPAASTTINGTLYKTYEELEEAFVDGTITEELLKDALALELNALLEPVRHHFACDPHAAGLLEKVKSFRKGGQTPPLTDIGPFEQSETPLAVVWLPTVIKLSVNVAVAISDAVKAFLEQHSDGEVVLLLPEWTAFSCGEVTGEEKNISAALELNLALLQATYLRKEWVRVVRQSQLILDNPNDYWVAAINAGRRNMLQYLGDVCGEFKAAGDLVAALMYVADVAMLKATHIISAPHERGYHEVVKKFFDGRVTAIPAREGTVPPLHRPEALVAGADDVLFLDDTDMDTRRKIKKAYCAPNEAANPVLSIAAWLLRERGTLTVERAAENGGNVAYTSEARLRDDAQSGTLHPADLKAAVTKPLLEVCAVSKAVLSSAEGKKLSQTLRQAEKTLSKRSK
Assay Text: Trypanosoma cruzi tyrosyl tRNA synthetase (TcYRS) SOP
Format: functional
Parameters: scale not given: direction of the effect not stated beside the values
Condition Description: 30 µM
Percent Effect by entry:
# unit: % | format: bare number

Example entries begin here.
{"Molecule": "Cn1cc(CNc2ncnc3c2CCN(Cc2ccsc2)CC3)cn1", "Percent Effect (%)": 16.1}
{"Molecule": "COCC1CN(Cc2ccc(C)o2)Cc2nnn(CC3CC3)c21 (stereo not drawn)", "Percent Effect (%)": -1.24}

molecule `CCS(=O)(=O)N1CC[C@]2(C[C@@H](OCC3CC3)CO2)C1` , Percent Effect observed: 13.6

* * *

Tested On: Chromo domain-containing protein 1 (Saccharomyces cerevisiae (strain ATCC 204508 / S288c) (Baker's yeast))
Assay Text: ScCHD-1 Enzyme Inhibition Assay; note: in the data most compounds retested in dose-response had high values
Assay type: functional
Parameters: scale not given: direction of the effect not stated beside the values
Condition Description: 30 µM
Readout Kind: Percent Effect (%)
Please give a number only; it is taken to be in %.

Some entries whose results are on file:
{"Compound": "Cc1nn(C)c(Cl)c1C1CCCN1CC(=O)NCc1ccccn1 (stereo not given)", "Percent Effect [%]": 3}
{"Compound": "CC(C)CCn1c(=O)nc2n1C(=O)N(c1ccc(F)cc1)C2", "Percent Effect [%]": 15.2}
{"Compound": "COc1nn(C)cc1C(=O)N1CCC(c2nnc(C3CC3)o2)CC1", "Percent Effect [%]": -10.2}
{"Compound": "CC(=O)N1CCC(CN2CCN(Cc3nccn3C)C(C)C2)CC1 (stereo not given)", "Percent Effect [%]": -2.18}

// switching to the query compound
Percent Effect for `Cc1ccc(CN2CC3(CCN(C(=O)c4cscn4)C3)C2)s1` is -1.23

* * *

Tested on: Trypanosoma cruzi
Assay Text: Trypanosoma cruzi phosphomannomutase and mannose-1-phosphate guanylyltransferase assay
Type: functional
Parameters: scale not given: direction of the effect not stated beside the values
Condition Description: 10 µM
Readout Kind: Percent Effect (%)
Write the number in % without appending the unit.

Some solved entries appear below for comparison.
{"Compound": "CCCNC(=O)c1c(-n2cnnn2)sc2c1CCC2", "Number": -9.45}
{"Compound": "O=C1NCCCCC1Sc1nnc(C2CC2)n1C1CC1 (configuration not stated)", "Number": 3.72}
{"Compound": "O=C(C1=CC2(CCNCC2)c2ccccc21)N1CCCC1", "Number": -7.53}
{"Compound": "CC(NC(=O)c1ccc2c(c1)OCC(=O)N2)c1ccccc1F (configuration not stated)", "Number": 1.03}
{"Compound": "Cc1ccc(N2CCCC(NCC(=O)NC3CCOCC3)C2)nn1 (configuration not stated)", "Number": -1.13}
{"Compound": "CCCc1noc(CCC(=O)N2CCCC2c2noc(C3CC3)n2)n1 (configuration not stated)", "Number": -0.85}
{"Compound": "Cc1cnn(C2CN(CC(O)c3ccc4c(c3)OCCO4)C2)c1 (configuration not stated)", "Number": -0.292}
{"Compound": "CCOCC1CN(C(=O)C2=CCCC2)Cc2cnn(CC)c21 (configuration not stated)", "Number": 3.62}
{"Compound": "CC(C)c1nnc2n1CCN(C(=O)c1ccc(CN(C)C)cc1)C2", "Number": -2.84}
{"Compound": "Cn1cc(C(=O)CC2CCCN2C(=O)c2cncc3ccccc23)cn1 (configuration not stated)", "Number": 0.718}

// Percent Effect value for Cc1nc(C)n(C2CCCN(C(=O)c3ccc4c(c3)COC4)C2)n1 (configuration not stated) : 7.15

Percent Effect in this record for `CCn1nc(C)c2nc(C(C)C)nc(N3CCCCC3)c21` : -5.8

Measured Percent Effect, `COc1ccc(Cl)cc1NCC(=O)NCCc1ccccn1` : -7.64

The reported value for Cc1ccc(C2CSCCN2C(=O)C2=CCCC2)o1 (configuration not stated) in terms of Percent Effect is 0.684

The reported Percent Effect of the compound `Cc1cccc(CN2CCc3ncnc(N4CCOCC4)c3CC2)n1` was -1.39

// recorded Percent Effect for `CCNS(=O)(=O)c1ccc(C)c(C(=O)N(C)Cc2ccco2)c1` : -1.65

Entry CC(C)[C@H](NC(=O)NC1CCS(=O)(=O)C1)C(=O)NCc1cccnc1 (some centres not stated) — recorded Percent Effect = -4.52

Reported Percent Effect of `CC(C)c1nnc2n1CCN(CC(=O)Nc1sccc1C#N)C2` : -3.83

Note to self: Percent Effect recorded for CN(Cc1nc(N)c2ccccc2n1)CC1CCCN1c1cccnn1 (configuration not stated) was 11.8

Lookup result for O=C(CN1CCCC1Cn1cncn1)NC(C1CC1)C1CC1 (configuration not stated) ; measured Percent Effect: 2.04

Noted for CN(Cc1nnc(-c2ccco2)o1)CC1CCCN1c1cccnn1 (configuration not stated) : its Percent Effect reads -0.881

Consider Cc1ncc(CNCC2CCCN2c2cccnn2)s1 (configuration not stated) . Its measured Percent Effect is 3.79

Summary for this compound, `COCc1ncn2c1CN(C(=O)C1CC=CC1)CC2` : Percent Effect is -2.64

Please fill in: Percent Effect reported for Cc1cc(CN(C)C(=O)C2CCS(=O)(=O)C2)no1 (configuration not stated) = 4.21

Percent Effect in this record for Cc1noc2ncc(C(=O)NCC3CCOC3)cc12 (configuration not stated) : -6.96

Per the records, this compound ( `O=C(Nc1ccc(F)cc1)N1C[C@H]2C[C@H](C(=O)N3CCOCC3)[C@@H](C1)O2` ) has Percent Effect equal to 0.493

compound `CSc1ncc(C(=O)N2C[C@H]3CC[C@@H]2CN(Cc2ccccc2)C3)cn1` , Percent Effect observed: -6.66

* * *

Tested On: Proteasome subunit beta (Trypanosoma cruzi) (UniProt O96673)
Sequence (O96673 as listed by the source): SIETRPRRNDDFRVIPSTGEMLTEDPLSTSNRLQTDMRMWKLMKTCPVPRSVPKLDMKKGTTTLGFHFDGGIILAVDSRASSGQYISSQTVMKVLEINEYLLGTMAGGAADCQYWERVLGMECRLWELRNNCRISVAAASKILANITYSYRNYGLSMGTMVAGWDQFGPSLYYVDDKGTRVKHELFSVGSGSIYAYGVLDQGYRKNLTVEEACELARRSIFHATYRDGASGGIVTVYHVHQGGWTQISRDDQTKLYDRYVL
Assay Text: Trypanosoma cruzi proteasome chymotrypsin-like activity (TcProtChymo) assay. Note: in the data most compounds retested in dose-response had high values.
Format: functional
Set-up: scale not given: direction of the effect not stated beside the values
Condition Description: 9.37 µM
Mark yes only for Percent Effect values smaller than 10%; exact matches and larger values are no.

{"Molecule": "COCC1CN(C(=O)c2ccnnc2)Cc2c1cnn2C (stereo not given)", "Class Assignment": "yes"}
{"Molecule": "CCCNC(=O)C1CCN(Cc2csc(C(C)(C)C)n2)CC1", "Class Assignment": "yes"}
{"Molecule": "CCN(C)c1ccc(C(=O)N(CCOC)Cc2ccccn2)cc1", "Class Assignment": "no"}
{"Molecule": "CC(C)c1noc(C(C)N2CCN(CCN3CCCC3=O)CC2)n1 (stereo not given)", "Class Assignment": "yes"}
{"Molecule": "Cc1cc(N2CCN(Cc3ccc(C)o3)CC2)cc(C)n1", "Class Assignment": "no"}

Data request: Record `CC(=O)N1CCC(c2nccnc2Oc2ccccc2)CC1` : is its Percent Effect strictly below 10%?
Data returned: yes

Data request: For this molecule, is Percent Effect lower than 10%? `CCCN(CC(=O)NC)C(=O)c1ccc(-c2ccsc2)nc1C`
Data returned: no

Data request: Please determine if O=C(C1CCOCC1)N1CCC2(CC1)CC(Oc1ccccc1)CO2 (stereo not given) is below 10% in terms of Percent Effect.
Data returned: yes

Data request: Dear colleague, could you confirm whether Percent Effect of `Cc1ccc(CN(Cc2c[nH]cn2)C2CC(C)(C)NC(C)(C)C2)o1` falls below 10%? Thanks.
Data returned: no

Data request: Lab log: compare recorded Percent Effect with 10%; is it strictly lower for `Cc1cc(NC(=O)c2nc(N3CCCC3)ncc2Cl)nc(C(C)C)n1` ?
Data returned: no
